experimental-system: Proteasome Macropain subunit MB1 (Homo sapiens, UniProt P28074)
Sequence (P28074 whole entry): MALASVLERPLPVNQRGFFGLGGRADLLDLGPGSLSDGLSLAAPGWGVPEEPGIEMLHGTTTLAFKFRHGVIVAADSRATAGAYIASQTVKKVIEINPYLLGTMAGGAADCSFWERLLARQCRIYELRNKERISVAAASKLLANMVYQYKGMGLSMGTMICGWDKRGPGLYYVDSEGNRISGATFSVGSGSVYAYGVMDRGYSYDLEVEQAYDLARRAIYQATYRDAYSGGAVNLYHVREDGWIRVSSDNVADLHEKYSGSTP
run-description: Inhibition of chymotrypsin-like activity of human 20S proteasome beta 5 subunit using Suc-LLVY-AMC as substrate after 60 mins by fluorescence assay
Lab note: anything with IC50 below 50 nM is marked criterion met; values at 50 nM or higher are marked criterion not met.

Incoming: Check if IC50 falls below 50 nM for CC[C@H](C)[C@@H]1C(=O)O[C@H]1C(=O)N[C@H]1C[C@H]1C[C@@H](CCCc1ccccc1)NC(=O)[C@H](C)NC(=O)OCc1ccccc1 .
Outgoing: criterion met

Incoming: Check if IC50 falls below 50 nM for CC[C@H](C)[C@@H]1C(=O)O[C@H]1C(=O)N[C@H]1C[C@H]1C[C@@H](Cc1cccc2ccccc12)NC(=O)[C@H](C)NC(=O)OCc1ccccc1 .
Outgoing: criterion not met

Incoming: Check if IC50 falls below 50 nM for CC[C@H](C)[C@@H]1C(=O)O[C@H]1C(=O)N[C@H]1C[C@H]1C[C@@H](CCc1ccccc1)NC(=O)[C@H](C)NC(=O)c1ccc2ccccc2c1 .
Outgoing: criterion met

Incoming: Check if IC50 falls below 50 nM for C=C[C@H](C[C@@H]1C[C@@H]1NC(=O)[C@@H]1OC(=O)[C@H]1[C@@H](C)CC)NC(=O)c1ccccc1 .
Outgoing: criterion not met

Incoming: Check if IC50 falls below 50 nM for CC[C@H](C)[C@@H]1C(=O)O[C@H]1C(=O)N[C@H]1C[C@H]1C[C@@H](Cc1ccc2ccccc2c1)NC(=O)[C@H](C)NC(=O)OCc1ccccc1 .
Outgoing: criterion not met

Incoming: Check if IC50 falls below 50 nM for C=C[C@H](C[C@@H]1C[C@@H]1NC(=O)[C@@H]1OC(=O)[C@H]1[C@@H](C)CC)NC(=O)[C@H](Cc1ccccc1)NC(=O)OCc1ccccc1 .
Outgoing: criterion met

Incoming: Check if IC50 falls below 50 nM for C=C[C@H](C[C@@H]1C[C@@H]1NC(=O)[C@@H]1OC(=O)[C@H]1[C@@H](C)CC)NC(=O)[C@@H](C)NC(=O)OCc1ccccc1 .
Outgoing: criterion not met

Incoming: Check if IC50 falls below 50 nM for C=C[C@H](C[C@@H]1C[C@@H]1NC(=O)[C@@H]1OC(=O)[C@H]1[C@@H](C)CC)NC(=O)[C@H](C)NC(=O)c1ccccc1 .
Outgoing: criterion not met

Incoming: Check if IC50 falls below 50 nM for C=C[C@H](C[C@@H]1C[C@@H]1NC(=O)[C@@H]1OC(=O)[C@H]1[C@@H](C)CC)NC(=O)[C@H](CC(C)C)NC(=O)OCc1ccccc1 .
Outgoing: criterion met
